Listed here: items and their measured LD50 at 14 day.
test: in vivo; details: both sexes, mouse, ip, white mice, intraperitoneal injection of 2% solution in starch, 14 day observation

# get_value(readout='LD50 at 14 day', item= CCOc1ccc(C(=O)C=C(NN=C2c3ccccc3-c3ccccc32)C(=O)OC)cc1 )
> 1500 mg/kg

Report LD50 at 14 day for COC(=O)C(=CC(=O)C(C)(C)C)Nc1ccc(Br)cc1 please.
> 1500 mg/kg

GET /values?readout=LD50 at 14 day&item= CCOc1ccc(C(=O)CC(O)(NN=C2c3ccccc3-c3ccccc32)C(=O)OC)cc1 (stereo not drawn)
> 1500 mg/kg
